molecular target: BMX (Homo sapiens, UniProt P51813); test: KINOMEscan competition binding; conditions: read-out: %Inh BMX
Sequence (P51813 whole entry): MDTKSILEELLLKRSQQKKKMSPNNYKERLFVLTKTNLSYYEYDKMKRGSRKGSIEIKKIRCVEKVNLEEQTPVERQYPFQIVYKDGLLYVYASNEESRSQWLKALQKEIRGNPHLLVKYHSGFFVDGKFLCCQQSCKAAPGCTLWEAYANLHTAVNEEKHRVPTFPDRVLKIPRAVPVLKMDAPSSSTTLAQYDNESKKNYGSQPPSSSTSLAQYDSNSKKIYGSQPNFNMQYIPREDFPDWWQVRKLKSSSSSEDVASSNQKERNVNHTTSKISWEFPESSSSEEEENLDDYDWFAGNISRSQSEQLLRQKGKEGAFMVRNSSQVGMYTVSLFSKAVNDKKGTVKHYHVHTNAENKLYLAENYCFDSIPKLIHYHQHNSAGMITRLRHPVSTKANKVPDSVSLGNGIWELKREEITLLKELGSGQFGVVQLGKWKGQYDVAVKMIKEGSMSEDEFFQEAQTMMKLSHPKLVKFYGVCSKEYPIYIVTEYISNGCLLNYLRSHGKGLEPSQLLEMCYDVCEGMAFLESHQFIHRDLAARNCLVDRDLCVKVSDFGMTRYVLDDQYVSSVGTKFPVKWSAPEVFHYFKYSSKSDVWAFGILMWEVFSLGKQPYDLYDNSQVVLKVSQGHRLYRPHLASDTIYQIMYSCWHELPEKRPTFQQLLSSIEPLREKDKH
Mark false (0) for inhibition at 1 µM values under 20%, and true (1) for everything at or above.

- CS(=O)(=O)Cc1ccc(Nc2nccc(-c3c(-c4cccc(NC(=O)C5CCCCC5)c4)nn4ncccc34)n2)cc1 [UNC10225159A]: true (1)
- Cc1ccc(NC(=O)Nc2cccc(C(F)(F)F)c2)cc1 [UNC10225187A]: false (0)
- COc1cccc(OC)c1C(=O)Nc1cccc(-c2nn3ccccc3c2-c2ccnc(Nc3cccc(F)c3)n2)c1 [UNC10225310A]: true (1)
- O=c1cc(N2CCOCC2)nc2n(Cc3cccc(Cl)c3Cl)c(C3CC3)nn12 [UNC10225469A]: false (0)
- Cn1cc(-c2cnc(N)c3c(-c4ccc5c(c4)CCN5C(=O)Cc4ccccc4)csc23)cn1 [UNC10225012A]: true (1)

###

target: HIPK1 (Homo sapiens); experiment: KINOMEscan competition binding; details: read-out: %Inh HIPK1
Sequence (Q86Z02 whole entry): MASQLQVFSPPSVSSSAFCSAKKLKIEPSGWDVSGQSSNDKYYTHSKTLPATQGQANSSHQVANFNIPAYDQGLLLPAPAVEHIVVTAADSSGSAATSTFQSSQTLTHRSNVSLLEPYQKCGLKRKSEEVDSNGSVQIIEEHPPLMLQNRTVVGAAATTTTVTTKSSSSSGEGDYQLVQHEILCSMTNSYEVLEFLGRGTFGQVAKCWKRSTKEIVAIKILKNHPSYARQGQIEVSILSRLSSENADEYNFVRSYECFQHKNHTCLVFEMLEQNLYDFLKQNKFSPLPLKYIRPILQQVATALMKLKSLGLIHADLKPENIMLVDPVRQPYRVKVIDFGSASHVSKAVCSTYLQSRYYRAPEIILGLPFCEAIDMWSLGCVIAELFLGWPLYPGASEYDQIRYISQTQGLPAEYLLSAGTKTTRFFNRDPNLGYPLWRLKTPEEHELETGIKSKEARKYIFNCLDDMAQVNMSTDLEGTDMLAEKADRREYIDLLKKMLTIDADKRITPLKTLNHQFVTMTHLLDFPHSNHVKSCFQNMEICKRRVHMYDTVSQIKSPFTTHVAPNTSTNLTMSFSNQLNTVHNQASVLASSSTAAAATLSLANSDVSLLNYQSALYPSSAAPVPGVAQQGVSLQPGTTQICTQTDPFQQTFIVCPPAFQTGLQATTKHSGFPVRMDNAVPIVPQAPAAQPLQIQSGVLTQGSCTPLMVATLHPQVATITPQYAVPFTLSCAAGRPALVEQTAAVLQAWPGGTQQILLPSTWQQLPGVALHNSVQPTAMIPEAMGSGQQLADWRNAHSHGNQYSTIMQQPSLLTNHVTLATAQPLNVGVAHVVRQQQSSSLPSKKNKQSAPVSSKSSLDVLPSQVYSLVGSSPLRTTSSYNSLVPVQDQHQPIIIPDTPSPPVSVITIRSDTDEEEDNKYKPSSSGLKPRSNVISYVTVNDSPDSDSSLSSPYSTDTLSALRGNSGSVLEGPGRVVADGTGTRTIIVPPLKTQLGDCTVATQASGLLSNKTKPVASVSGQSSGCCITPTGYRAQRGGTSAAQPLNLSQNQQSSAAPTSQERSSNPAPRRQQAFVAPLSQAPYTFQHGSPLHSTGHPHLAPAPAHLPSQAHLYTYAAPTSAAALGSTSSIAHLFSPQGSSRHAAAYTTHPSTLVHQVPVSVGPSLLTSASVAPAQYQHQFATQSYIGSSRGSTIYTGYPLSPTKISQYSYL
Items are presented alongside their recorded inhibition at 1 µM.
Measured Quantity: inhibition at 1 µM

• COc1cccc(OC)c1C(=O)Nc1cccc(-c2nn3ccccc3c2-c2ccnc(Nc3cccc(F)c3)n2)c1 [UNC10225310A] = 31%
• CS(=O)(=O)Cc1ccc(Nc2nccc(-c3c(-c4cccc(NC(=O)C5CCCCC5)c4)nn4ncccc34)n2)cc1 [UNC10225159A] = 5%
• Cn1cc(-c2cnc(N)c3c(-c4ccc5c(c4)CCN5C(=O)Cc4ccccc4)csc23)cn1 [UNC10225012A] = 21%
• O=c1cc(N2CCOCC2)nc2n(Cc3cccc(Cl)c3Cl)c(C3CC3)nn12 [UNC10225469A] = 16%
• Cc1ccc(NC(=O)Nc2cccc(C(F)(F)F)c2)cc1 [UNC10225187A] = 8%

###

target: IKK-beta (Homo sapiens, UniProt O14920); test: KINOMEscan competition binding; conditions: read-out: %Inh IKK-beta
Sequence (O14920 whole entry): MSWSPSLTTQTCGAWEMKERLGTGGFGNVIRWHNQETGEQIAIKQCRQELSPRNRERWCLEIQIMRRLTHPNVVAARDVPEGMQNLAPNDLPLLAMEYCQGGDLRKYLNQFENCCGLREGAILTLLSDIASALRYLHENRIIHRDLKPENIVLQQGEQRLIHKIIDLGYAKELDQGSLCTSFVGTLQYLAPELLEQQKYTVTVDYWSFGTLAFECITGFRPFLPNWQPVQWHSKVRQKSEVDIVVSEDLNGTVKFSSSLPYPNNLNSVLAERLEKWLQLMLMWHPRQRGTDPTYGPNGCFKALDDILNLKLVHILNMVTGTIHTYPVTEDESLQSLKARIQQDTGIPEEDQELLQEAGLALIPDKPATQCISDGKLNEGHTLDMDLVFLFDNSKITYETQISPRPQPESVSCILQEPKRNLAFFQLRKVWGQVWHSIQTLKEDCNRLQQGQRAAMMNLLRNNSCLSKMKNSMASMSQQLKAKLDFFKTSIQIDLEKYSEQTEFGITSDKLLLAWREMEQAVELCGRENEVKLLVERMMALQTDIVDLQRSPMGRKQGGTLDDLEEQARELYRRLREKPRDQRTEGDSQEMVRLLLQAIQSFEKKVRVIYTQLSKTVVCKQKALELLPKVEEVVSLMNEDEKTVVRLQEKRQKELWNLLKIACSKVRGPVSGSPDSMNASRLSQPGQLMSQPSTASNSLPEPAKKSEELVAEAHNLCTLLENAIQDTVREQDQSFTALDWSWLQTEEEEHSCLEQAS
Measured Quantity: inhibition at 1 µM (%)

- O=c1cc(N2CCOCC2)nc2n(Cc3cccc(Cl)c3Cl)c(C3CC3)nn12 [UNC10225469A]: 0
- Cn1cc(-c2cnc(N)c3c(-c4ccc5c(c4)CCN5C(=O)Cc4ccccc4)csc23)cn1 [UNC10225012A]: 0
- COc1cccc(OC)c1C(=O)Nc1cccc(-c2nn3ccccc3c2-c2ccnc(Nc3cccc(F)c3)n2)c1 [UNC10225310A]: 0
- CS(=O)(=O)Cc1ccc(Nc2nccc(-c3c(-c4cccc(NC(=O)C5CCCCC5)c4)nn4ncccc34)n2)cc1 [UNC10225159A]: 12
- Cc1ccc(NC(=O)Nc2cccc(C(F)(F)F)c2)cc1 [UNC10225187A]: 0

###

Molecular target: CAMK4 (Homo sapiens, UniProt Q16566)
Sequence (Q16566 1-473): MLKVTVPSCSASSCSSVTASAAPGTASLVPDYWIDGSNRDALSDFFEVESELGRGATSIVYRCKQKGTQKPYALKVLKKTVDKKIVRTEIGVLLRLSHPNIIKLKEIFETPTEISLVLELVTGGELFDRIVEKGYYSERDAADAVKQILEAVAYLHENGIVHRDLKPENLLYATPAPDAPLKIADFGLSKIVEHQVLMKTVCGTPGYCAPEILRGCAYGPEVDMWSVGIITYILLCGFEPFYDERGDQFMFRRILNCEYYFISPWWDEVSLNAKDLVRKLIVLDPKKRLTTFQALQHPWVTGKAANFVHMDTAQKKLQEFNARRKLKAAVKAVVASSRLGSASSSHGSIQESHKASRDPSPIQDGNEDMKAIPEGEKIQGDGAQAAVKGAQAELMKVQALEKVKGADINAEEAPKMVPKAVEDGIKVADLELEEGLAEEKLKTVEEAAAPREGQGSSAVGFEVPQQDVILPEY
Test: KINOMEscan competition binding
Conditions: read-out: %Inh CAMK4
Measured Quantity: inhibition at 1 µM (%)

• CS(=O)(=O)Cc1ccc(Nc2nccc(-c3c(-c4cccc(NC(=O)C5CCCCC5)c4)nn4ncccc34)n2)cc1 [UNC10225159A] = 0
• O=c1cc(N2CCOCC2)nc2n(Cc3cccc(Cl)c3Cl)c(C3CC3)nn12 [UNC10225469A] = 5
• Cc1ccc(NC(=O)Nc2cccc(C(F)(F)F)c2)cc1 [UNC10225187A] = 5
• COc1cccc(OC)c1C(=O)Nc1cccc(-c2nn3ccccc3c2-c2ccnc(Nc3cccc(F)c3)n2)c1 [UNC10225310A] = 0
• Cn1cc(-c2cnc(N)c3c(-c4ccc5c(c4)CCN5C(=O)Cc4ccccc4)csc23)cn1 [UNC10225012A] = 0
